src = PubChem BioAssay (NCI)

In this section, each of the molecules is paired with its reported growth inhibition.
# method summary: NCI Yeast Anticancer Drug Screen. Data for the bub3 strain (AID 167)
# experimental setup: S. cerevisiae bub3 mutant strain, at 1.2 µM, hits give high values
The panel holds about 79,000 compounds, 15% with a hit somewhere; the sample as a whole holds those more often.
Write the answer as a number in %, unit excluded.

Answer with reported growth inhibition of "O=C(NNc1ccnc2cc(Cl)ccc12)/C(=C\c1ccccc1Cl)NC(=O)c1ccccc1" 0

Answer with reported growth inhibition of "CCCCc1cc(O)ccc1O" -9

Answer with reported growth inhibition of "COc1ccc(-c2cn(-c3ccc(I)cc3)c3ncnc(N)c23)cc1" -2

Answer with reported growth inhibition of "CN(C)c1ccc(C(C#N)=C(C#N)C#N)cc1" -10

Answer with reported growth inhibition of "Cn1c2ccccc2c(=O)c2cc(NC(=O)CCCCC(=O)Nc3ccc4c(c3)c(=O)c3ccccc3n4C)ccc21" -4

Answer with reported growth inhibition of CN1c2ccc(Cl)cc2C(=O)NC1c1ccc([N+](=O)[O-])s1 (stereo not drawn) 0

Answer with reported growth inhibition of "Cc1cc(I)ccc1N" 1

Answer with reported growth inhibition of "O=C1Nc2ccc(Cl)c(I)c2C1=O" -14

====

# method summary: NCI Yeast Anticancer Drug Screen. Data for the rad14 strain (AID 159);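 also: 0% = growth of vehicle-treated control cultures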
# experimental setup: S. cerevisiae rad14 strain growth inhibition; at 100.0 µM; hits give high values
This is part of a sample that, as a whole, favours compounds with a hit. Of some 79,000 tested, about 15% had one in any assay.
measured attribute: growth inhibition (%)
Write the answer as a number in %, unit excluded.

- compound: "Oc1ccc2ccccc2c1C(c1ccc(Cl)cc1)c1c(O)ccc2ccccc12"
  growth inhibition, %: 84
- compound: "CCN(CC)CC(O)c1ccc2ccc3ccccc3c2c1 (configuration not stated)"
  growth inhibition, %: 70

Answer with reported growth inhibition of "O=C(NCCCCNCCCNC(=O)c1cc(-c2ccccc2)nc2ccccc12)c1cc(-c2ccccc2)nc2ccccc12" 94

Answer with reported growth inhibition of O=[N+]([O-])c1ccc2c(c1)C(N1CCN(CCO)CC1)Cc1ccc(F)cc1S2 (configuration not stated) 93

Answer with reported growth inhibition of "O=[N+]([O-])c1cccc([N+](=O)[O-])c1S(=O)(=O)c1ccccc1" 92

Answer with reported growth inhibition of CCOC(=O)[C@H]1Nc2ccccc2C2c3ccccc3CC21 (some centres not stated) 50

Answer with reported growth inhibition of CCc1ncnc2cc(OCC3CO3)c(OC)cc12 (configuration not stated) 94

====

# method summary: NCI Yeast Anticancer Drug Screen. Data for the rad18 strain (AID 177)
# experimental setup: S. cerevisiae rad18 mutant growth inhibition; at 3.7 µM; hits give high values
About 79,000 compounds went through this panel and 15% of them were active in at least one assay; those are over-represented in the sample as a whole.
In this section, each of the compounds is paired with its reported growth inhibition.
Write the answer as a number in %, unit excluded.

- compound: "CC(Br)C(=O)c1ccc2cc(Br)c3ccccc3c2c1 (configuration not stated)"
  units text: "%"
  growth inhibition: 5

Answer with reported growth inhibition of "CN(C)c1nc2sc3c(c2c(=O)o1)CCCC3" 1

Answer with reported growth inhibition of Nc1ccccc1CC(O)C(=O)O (configuration not stated) 4

Answer with reported growth inhibition of "OC(c1ccc(F)cc1)(c1ccc(F)cc1)C1CC1" -11

Answer with reported growth inhibition of "CCC(=O)Oc1c(Cl)cc(Cl)c2ccccc12" 1

Answer with reported growth inhibition of "CCCCCCCCCCNC(=O)OCC" 1
